This collection of values is drawn from patent US6620831B2.

Experimental system: CDK2/cyclin A (Homo sapiens, UniProt P24941)
Experimental protocol: CDK2 inhibitory activity (CDK2/cyclin A, [gamma-32P] ATP, histon H1 or Rb protein substrate)
Study conditions: first IC50 column (c1) of Table 1
# reported IC50; entries follow

The examples below pair each entry with its known result.
Molecule | Experimental system | IC50
Cc1cccc(CC(=O)Nc2n[nH]c3ccc(N4CCCS4(=O)=O)cc23)c1 [Compound 27] | CDK2/cyclin A (Homo sapiens, UniProt P24941) | < 0.05 µM
CN1CCN(CC(=O)Nc2n[nH]c3ccc(N4CCCS4(=O)=O)cc23)CC1 [Compound 30] | CDK2/cyclin A (Homo sapiens, UniProt P24941) | < 10 µM
O=C(Cc1ccc(F)cc1)Nc1n[nH]c2ccc(N3CCCS3(=O)=O)cc12 [Compound 9] | CDK2/cyclin A (Homo sapiens, UniProt P24941) | < 0.05 µM
NCCOc1ccc(CC(=O)Nc2n[nH]c3ccc(N4CCCS4(=O)=O)cc23)cc1 [Compound 82] | CDK2/cyclin A (Homo sapiens, UniProt P24941) | < 1 µM

Recall and state the measured IC50 for O=S1(=O)CCCN1c1ccc2[nH]nc(NC(=S)Cc3ccccc3)c2c1 [Compound 13] .
< 10 µM

Recall and state the measured IC50 for CC(=O)c1ccc(N2CCN(CC(=O)Nc3n[nH]c4ccc(N5CCCS5(=O)=O)cc34)CC2)cc1 [Compound 53] .
< 10 µM

Recall and state the measured IC50 for CCOc1ccccc1N1CCN(CC(=O)Nc2n[nH]c3ccc(N4CCCS4(=O)=O)cc23)CC1 [Compound 52] .
< 10 µM

Recall and state the measured IC50 for CC(C)c1ccc(CC(=O)Nc2n[nH]c3ccc(N4CCCS4(=O)=O)cc23)cc1 [Compound 26] .
< 0.05 µM
